Target: CDK2/Cyclin E complex (Homo sapiens, UniProt P24941)
Experiment: CDK2/Cyclin E fluorescence-based microfluidic mobility shift assay (CDK2 Biochemical Caliper Assay)
Conditions: read-out: Biochemical CDK2/CyclinE Caliper IC50
pIC50: −log10 of the molar value.
// reported pIC50 for each item listed

Example entries begin here.
>>> result("COc1ccc2cnnc(Nc3cc(C4CCCC4)[nH]n3)c2c1 [Example 878]")
"4.00 to 6.00"
>>> result("Cc1cc(CC(=O)Nc2cc([C@H]3CC[C@@H](OC(=O)[C@H](N)C(C)C)C3)[nH]n2)on1 (single isomer, unassigned) [Example 450]")
"≥ 7.00"
>>> result("COCc1cc(C(=O)Nc2cc([C@H]3CC[C@H](Cc4ncc(C)s4)C3)[nH]n2)n(C)n1 (single isomer, unassigned) [Example 557]")
"4.00 to 6.00"

Shift focus to the following entry.
Query: Which pIC50 is reported with CDK2/Cyclin E complex (Homo sapiens, UniProt P24941) for this entry: COCc1cc2c(Nc3cc([C@H]4C[C@@H](COc5cn[nH]c5C(C)(C)C)C4)[nH]n3)nccn2n1 [Example 630] ?
Result: ≥ 7.00

----------
Target: CDK2/Cyclin E complex (Homo sapiens, UniProt P24941)
Assay: CDK2/Cyclin E fluorescence-based microfluidic mobility shift assay (CDK2 Biochemical Caliper Assay)
Details: read-out: Biochemical CDK2/CyclinE Caliper IC50
pIC50: −log10 of the molar value.
Measured parameter: pIC50

Completed entries (count: 5):
>>> result("CNC(=O)O[C@@H]1CC[C@H](c2cc(Nc3ccc4c(n3)C(C)(C)NC4=O)n[nH]2)C1 (single isomer, unassigned)")
"≥ 7.00"
>>> result("Cc1cnc(Nc2cc(C3CCCC3)[nH]n2)c(C)n1")
"4.00 to 6.00"
>>> result("COCc1cc2c(Nc3cc([C@H]4C[C@@H](OC(=O)N[C@H](C)C5CC5)CO4)[nH]n3)nccn2n1")
"≥ 7.00"
>>> result("CC(C)c1ccnnc1O[C@H]1C[C@@H](c2cc(Nc3nccc4ncsc34)n[nH]2)C1")
"≥ 7.00"
>>> result("Cc1cc(CC(=O)Nc2cc([C@@H]3CC[C@H](Oc4nnccc4C(C)C)C3)[nH]n2)on1 (single isomer, unassigned)")
"≥ 7.00"

Query: Which pIC50 value belongs to "COCc1cc(C(=O)Nc2cc([C@H]3C[C@]4(C3)NC(=O)N(CC(C)C)C4=O)n[nH]2)n(C)n1" ?
Result: 4.00 to 6.00

Query: What does the data say about its pIC50? Entry: Cc1ccc(O[C@H]2CC[C@@H](c3cc(NC(=O)Cc4cc(C)no4)n[nH]3)C2)cn1 (single isomer, unassigned)
Result: 6.00 to 6.60

Query: What does the record list as pIC50 for "COCc1cc2c(Nc3cc([C@H]4C[C@@H](Oc5nncn5C5(C(F)(F)F)CC5)CO4)[nH]n3)nccn2n1" ?
Result: 6.60 to 7.00

----------
Molecular target: CDK2/Cyclin E complex (Homo sapiens, UniProt P24941)
Experiment: CDK2/Cyclin E fluorescence-based microfluidic mobility shift assay (CDK2 Biochemical Caliper Assay)
Details: read-out: Biochemical CDK2/CyclinE Caliper IC50
Experimental: Compounds of the present disclosure were tested in a CDK2/Cyclin E fluorescence-based microfluidic mobility shift assay (PerkinElmer). The active wild type CDK2/Cyclin E complex was purchased from Eurofins (14-475). Compound stocks were prepared in DMSO and were serially diluted into 11 concentrations by 3-fold dilution. […] The final reaction components were 0.1 nM CDK2/Cyclin E, 2000 uM ATP and 1.5 uM FL Peptide 18 and 1% DMSO. […] Samples were analyzed using a LabChip EZ reader (PerkinElmer).
pIC50: −log10 of the molar value.
Measured pIC50 values are reported for all entries that follow.

Solved entries (count: 6):
>>> result("Cc1cc(CC(=O)Nc2cc([C@H]3CC[C@@H](NC(=O)OC(C)C)C3)[nH]n2)on1 (single isomer, unassigned)")
"4.00 to 6.00"
>>> result("Cc1cc(CC(=O)Nc2cc([C@H]3CC[C@@H](Oc4cccnc4)C3)[nH]n2)on1 (single isomer, unassigned)")
"6.00 to 6.60"
>>> result("COCc1cc(C(=O)Nc2cc([C@H]3CC[C@@H](c4ccc(C)[nH]c4=O)C3)[nH]n2)n(C)n1 (racemic) [Example 518]")
"6.00 to 6.60"
>>> result("Cn1nc(COC(F)(F)F)cc1C(=O)Nc1cc([C@H]2C[C@@H](OC(=O)NC34CC(C3)C4)CO2)[nH]n1")
"≥ 7.00"
>>> result("COCc1cc(C(=O)Nc2cc([C@H]3CC[C@@H](Oc4cn[nH]c4C(C)C)C3)[nH]n2)n(C)n1")
"6.60 to 7.00"
>>> result("COCc1cc2c(Nc3cc([C@H]4C[C@@H](OC(=O)NC5(C#N)CC5)CO4)[nH]n3)nccn2n1")
"≥ 7.00"

We next turn to a different molecule, shown below.
Query: Any idea what pIC50 was measured for "Cc1cc2ccccc2c(Nc2cc(C3CCCC3)[nH]n2)n1" ?
Result: 4.00 to 6.00
